Where these numbers come from: ChEMBL document CHEMBL1127787

tested on: CCRF-CEM; test: Tested for the inhibitory activity of virus induced giant cell formation in HIV-2 infected CEM cells; type: functional, cell-based; conditions: Homo sapiens
I'd be grateful if you could share measured EC50 for these entries.

For the compound shown here, CC(C)(C)[Si](C)(C)OC[C@H]1O[C@@H](n2cc([Si](C)(C)C)nn2)[C@H](O[Si](C)(C)C(C)(C)C)[C@]12OS(=O)(=O)C=C2N , give the reported EC50. > 2.6 µM

For the compound shown here, COCc1cnnn1[C@@H]1O[C@H](CO[Si](C)(C)C(C)(C)C)[C@@]2(OS(=O)(=O)C=C2N)[C@H]1O[Si](C)(C)C(C)(C)C , give the reported EC50. > 14 µM

For the compound shown here, COCc1cn([C@@H]2O[C@H](CO[Si](C)(C)C(C)(C)C)[C@@]3(OS(=O)(=O)C=C3N)[C@H]2O[Si](C)(C)C(C)(C)C)nn1 , give the reported EC50. > 70 µM

For the compound shown here, CC(C)(C)[Si](C)(C)OC[C@H]1O[C@@H](n2cc(CBr)nn2)[C@H](O[Si](C)(C)C(C)(C)C)[C@]12OS(=O)(=O)C=C2N , give the reported EC50. > 1.3 µM

For the compound shown here, COC(=O)c1nnn([C@@H]2O[C@H](CO[Si](C)(C)C(C)(C)C)[C@@]3(OS(=O)(=O)C=C3N)[C@H]2O[Si](C)(C)C(C)(C)C)c1C(=O)OC , give the reported EC50. > 30 µM

For the compound shown here, CC(C)(C)[Si](C)(C)OC[C@H]1O[C@@H](n2nncc2C(N)=O)[C@H](O[Si](C)(C)C(C)(C)C)[C@]12OS(=O)(=O)C=C2N , give the reported EC50. > 7 µM

###

I'd be grateful if you could share measured EC50 for these entries.
system: CCRF-CEM; test: Tested for the inhibitory activity of virus induced giant cell formation in HIV-1 infected CEM cells; assay type: functional, cell-based; conditions: Homo sapiens
A complete answer gives the number and then names the unit.

For the compound shown here, COC(=O)c1nnn([C@@H]2O[C@H](CO[Si](C)(C)C(C)(C)C)[C@@]3(OS(=O)(=O)C=C3N)[C@H]2O[Si](C)(C)C(C)(C)C)c1C(=O)OC , give the reported EC50. 530 nM

For the compound shown here, CN(C)C(=O)c1cn([C@@H]2O[C@H](CO[Si](C)(C)C(C)(C)C)[C@@]3(OS(=O)(=O)C=C3N)[C@H]2O[Si](C)(C)C(C)(C)C)nn1 , give the reported EC50. 1200 nM

For the compound shown here, COC(=O)c1cn([C@@H]2O[C@H](CO[Si](C)(C)C(C)(C)C)[C@@]3(OS(=O)(=O)C=C3N)[C@H]2O[Si](C)(C)C(C)(C)C)nn1 , give the reported EC50. 180 nM

###

test system: CCRF-CEM; assay: Tested for the inhibitory activity of virus induced giant cell formation in HIV-1 infected CEM cells; type: functional, cell-based; conditions: Homo sapiens
MEASURED PARAMETER: pEC50
Worth noting: pEC50 values are minus log10 of concentrations stated in mol/L.

GET /values?readout=pEC50&system=CCRF-CEM&item= CCCc1cn([C@@H]2O[C@H](CO[Si](C)(C)C(C)(C)C)[C@@]3(OS(=O)(=O)C=C3N)[C@H]2O[Si](C)(C)C(C)(C)C)nn1 5.89

GET /values?readout=pEC50&system=CCRF-CEM&item= CCOC(=O)c1nnn([C@@H]2O[C@H](CO[Si](C)(C)C(C)(C)C)[C@@]3(OS(=O)(=O)C=C3N)[C@H]2O[Si](C)(C)C(C)(C)C)c1C(=O)OCC 5.80

GET /values?readout=pEC50&system=CCRF-CEM&item= CCCCc1cnnn1[C@@H]1O[C@H](CO[Si](C)(C)C(C)(C)C)[C@@]2(OS(=O)(=O)C=C2N)[C@H]1O[Si](C)(C)C(C)(C)C 5.82

GET /values?readout=pEC50&system=CCRF-CEM&item= CNC(=O)c1cnnn1[C@@H]1O[C@H](CO[Si](C)(C)C(C)(C)C)[C@@]2(OS(=O)(=O)C=C2N)[C@H]1O[Si](C)(C)C(C)(C)C 7.10

GET /values?readout=pEC50&system=CCRF-CEM&item= CC(C)(C)[Si](C)(C)OC[C@H]1O[C@@H](n2nncc2C(N)=O)[C@H](O[Si](C)(C)C(C)(C)C)[C@]12OS(=O)(=O)C=C2N 6.85
